Numbers sourced from patent US5716929A.

Target: interleukin-1β converting enzyme (ICE) (Homo sapiens)
Sequence (P29466 120-297 limits assumed): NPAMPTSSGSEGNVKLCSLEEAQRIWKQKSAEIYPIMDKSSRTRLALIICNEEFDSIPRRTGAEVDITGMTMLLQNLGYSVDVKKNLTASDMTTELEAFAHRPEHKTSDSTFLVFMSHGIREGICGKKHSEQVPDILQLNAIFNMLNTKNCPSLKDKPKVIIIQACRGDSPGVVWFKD
Sequence (P29466 317-404 limits assumed): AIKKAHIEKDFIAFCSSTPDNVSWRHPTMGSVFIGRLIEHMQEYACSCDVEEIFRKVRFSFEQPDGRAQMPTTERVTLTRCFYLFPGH
Experiment: Enzyme assay with UV-visible substrate (Succinyl-Tyr-Val-Ala-Asp-pNitroanilide)
Type: biochemical
Settings: Example 6 table
Square brackets hold non-standard residues; d marks the D form. Peptide text beside a SMILES is read from it. * marks the point of attachment. Hyp = O=C(O)[C@@H]1C[C@@H](O)CN1; Allyl = C=CC*
Reported Endpoint: Ki (nM)
Express it in nM; write the number only.

Molecule: CC(C(=O)N[C@H](C=O)CC(=O)O)N1CCN(C(=O)CCc2ccccc2)C[C@H](NC(=O)CCc2ccccc2)C1=O (mixture of isomers)
Ki / nM: 345

Annotate the molecule C=CCO[C@@H]1C[C@@H](C(=O)N[C@H](C=O)CC(=O)O)N(C(=O)[C@@H](NC(=O)[C@H](Cc2ccc(O)cc2)NC(C)=O)C(C)C)C1 [Compound 85] (Ac-YV[Hyp](Allyl)D-aldehyde) with its measured Ki.
3.5

Provide Ki value for the following molecule: O=C[C@H](CC(=O)O)NC(=O)CN1C(=O)[C@@H](NC(=O)CCc2ccccc2)CN(C(=O)CCc2ccccc2)c2ccccc21 [Compound 106b]
200

Provide measured Ki value, entry: `COc1cccc2nc(C(=O)[C@H](CC(=O)O)NC(=O)[C@@H]3C[C@H](Oc4ccccc4)CN3C(=O)[C@@H](NC(C)=O)C(C)C)oc12`
175

Item O=C(O)C[C@H](NC(=O)CN1C(=O)[C@@H](NC(=O)CCc2ccccc2)CN(C(=O)CCc2ccccc2)c2ccccc21)C(=O)c1ncc(-c2c(Cl)cccc2Cl)o1 [Compound 108c] : provide Ki
430

====

target: interleukin-1β converting enzyme (ICE) (Homo sapiens); test: Enzyme assay with UV-visible substrate (Succinyl-Tyr-Val-Ala-Asp-pNitroanilide); type: biochemical; conditions: Example 6 table
We begin with a simple list: items and their reported pKi.
Please express pKi as -log10 of the molar concentration.

Recorded pKi, per entry:
Molecule: O=CC(CC(=O)O)NC(=O)CN1C(=O)C(NC(=O)OCc2ccccc2)CN(Cc2ccccc2)C(=O)C1Cc1ccccc1 (stereo not shown) [Compound 121]
Target System: interleukin-1β converting enzyme (ICE) (Homo sapiens)
pKi: 5.37

Molecule: COc1ccc(CCCc2cnc(C(=O)N3C[C@H](Oc4ccccc4)C[C@H]3C(=O)N[C@H](C=O)CC(=O)O)[nH]2)cc1 [Compound 22e]
Target System: interleukin-1β converting enzyme (ICE) (Homo sapiens)
pKi: 6.72

Molecule: CC(=O)N[C@@H](Cc1ccc(O)cc1)C(=O)N[C@H](C(=O)N[C@@H](C)C(=O)N[C@@H](CC(=O)O)C(=O)COCc1ccccc1Cl)C(C)C [Compound 89]
Target System: interleukin-1β converting enzyme (ICE) (Homo sapiens)
pKi: 7.74

Tell us which pKi value is on record for O=C(O)C[C@H](NC(=O)Cn1c(Cc2ccccc2)ccc(NC(=O)CCc2ccccc2)c1=O)C(=O)CO [Compound 88]
6.05

====

biological target: interleukin-1β converting enzyme (ICE) (Homo sapiens, UniProt P29466); assay: Enzyme assay with UV-visible substrate (Succinyl-Tyr-Val-Ala-Asp-pNitroanilide); format: biochemical; conditions: Example 4 table
Reported Endpoint: pKi
pKi (log units): -log10 of the concentration in mol/L.

Examples with their reported pKi follow.
Compound: O=C[C@H](CC(=O)O)NC(=O)[C@@H]1CCCN1C(=O)c1cc2ccccc2[nH]1
Reported Endpoint: pKi
Obs Value: 5.60
--
Compound: COc1ccc(CCCc2c[nH]c(C(=O)N3CCC[C@H]3C(=O)N[C@H](C=O)CC(=O)O)n2)cc1 [Compound 21e]
Reported Endpoint: pKi
Obs Value: 6.66

Give the reported pKi for this compound. O=C[C@H](CC(=O)O)NC(=O)[C@@H]1CCCN1C(=O)c1nc(CCCc2ccccc2)c[nH]1 [Compound 21d]
6.62

// fetch pKi given entry CC(=O)N[C@@H](Cc1ccc(O)cc1)C(=O)N[C@H](C(=O)N[C@@H](C)C(=O)N[C@H](CC(=O)O)C(=O)COCc1c(Cl)cccc1Cl)C(C)C (mixture of isomers) [Compound 84b]
7.72

====

molecular target: interleukin-1β converting enzyme (ICE) (Homo sapiens, UniProt P29466); test: Enzyme assay with fluorescent substrate (Acetyl-Tyr-Val-Ala-Asp-AMC); assay type: biochemical; conditions: Example 2 table, read-out: Fluorescence Ki
Reported Endpoint: Ki

Kindly indicate its recorded Ki. Item: CC(=O)N[C@@H](Cc1ccc(O)cc1)C(=O)N[C@H](C(=O)N1CC(OCc2ccccc2)C[C@H]1C(=O)NC(C=O)CC(=O)O)C(C)C (stereo partly shown) [Compound K]
2 nM

====

Target: interleukin-1β converting enzyme (ICE) (Homo sapiens, UniProt P29466)
Sequence (P29466 120-297 limits assumed): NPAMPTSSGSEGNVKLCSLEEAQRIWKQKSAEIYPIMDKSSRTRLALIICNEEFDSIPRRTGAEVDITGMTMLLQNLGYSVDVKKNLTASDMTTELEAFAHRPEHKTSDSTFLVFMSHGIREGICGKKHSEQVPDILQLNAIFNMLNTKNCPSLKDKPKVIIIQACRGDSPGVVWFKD
Sequence (P29466 317-404 limits assumed): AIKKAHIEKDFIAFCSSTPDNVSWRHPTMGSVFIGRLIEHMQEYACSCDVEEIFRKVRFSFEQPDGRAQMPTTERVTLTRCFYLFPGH
Test: Enzyme assay with UV-visible substrate (Succinyl-Tyr-Val-Ala-Asp-pNitroanilide)
Assay type: biochemical
Conditions: Example 4 table
Mark MET only when Ki stays strictly below 800 nM. Values equal to the cut-off are NOT MET.

# example entries with known answers
Compound: CC(C(=O)N[C@H](C=O)CC(=O)O)n1c(Cc2ccccc2)ccc(NC(=O)CCc2ccccc2)c1=O (stereo partly shown) [Compound 54h]
Target System: interleukin-1β converting enzyme (ICE) (Homo sapiens, UniProt P29466)
Class Label: NOT MET

Compound: Cc1c[nH]c2c(=O)n(CC(=O)N[C@H](C=O)CC(=O)O)cnc12
Target System: interleukin-1β converting enzyme (ICE) (Homo sapiens, UniProt P29466)
Class Label: NOT MET

Compound: O=C[C@H](CC(=O)O)NC(=O)[C@@H]1CCCN1C(=O)c1nc(CCCc2ccc(O)cc2)c[nH]1 [Compound 21f]
Target System: interleukin-1β converting enzyme (ICE) (Homo sapiens, UniProt P29466)
Class Label: MET

Compound: O=C[C@H](CC(=O)O)NC(=O)[C@@H]1CCCN1C(=O)c1nc(CCc2ccccc2)c[nH]1 [Compound 21c]
Target System: interleukin-1β converting enzyme (ICE) (Homo sapiens, UniProt P29466)
Class Label: MET

Compound: CC(C)[C@H](NC(=O)OCc1ccccc1)C(=O)N[C@@H](C)C(=O)N[C@H](CC(=O)O)C(=O)COCc1c(Cl)cccc1Cl (mixture of isomers) [Compound 84a]
Target System: interleukin-1β converting enzyme (ICE) (Homo sapiens, UniProt P29466)
Class Label: MET

Compound: O=C[C@H](CC(=O)O)NC(=O)C1CCc2ncc(NC(=O)c3ccccc3)c(=O)n21 (single isomer, unassigned) [Compound 7a]
Target System: interleukin-1β converting enzyme (ICE) (Homo sapiens, UniProt P29466)
Class Label: NOT MET

Compound: C[C@H](NC(=O)c1nc(CCCc2ccccc2)c[nH]1)C(=O)N[C@H](C=O)CC(=O)O [Compound 20d]
Target System: interleukin-1β converting enzyme (ICE) (Homo sapiens, UniProt P29466)
Class Label: MET

Compound: C[C@H](NC(=O)c1nc(Cc2ccccc2)c[nH]1)C(=O)N[C@H](C=O)CC(=O)O [Compound 20b]
Target System: interleukin-1β converting enzyme (ICE) (Homo sapiens, UniProt P29466)
Class Label: NOT MET

For the next question, use this compound.
Consider O=C[C@H](CC(=O)O)NC(=O)C1CCc2ncc(NC(=O)c3ccccc3)c(=O)n21 (single isomer, unassigned) [Compound 7b] . Does its Ki lie strictly below 800 nM?
NOT MET

====

biological target: interleukin-1β converting enzyme (ICE) (Homo sapiens); assay: Enzyme assay with UV-visible substrate (Succinyl-Tyr-Val-Ala-Asp-pNitroanilide); assay type: biochemical; conditions: Example 2 table
Square brackets hold non-standard residues; d marks the D form. Peptide text beside a SMILES is read from it. ξ: configuration not given here. Tic = O=C(O)[C@@H]1Cc2ccccc2CN1; ξD = NC(CC(=O)O)C(=O)O
Reported Endpoint: pKi
pKi is a log-scale quantity: -log10 of the concentration expressed in molar.

Some compounds with recorded pKi:
Compound: C[C@H](NC(=O)c1ncc(CCc2ccccc2)[nH]1)C(=O)N[C@H](C=O)CC(=O)O [Compound 20c]
Target System: interleukin-1β converting enzyme (ICE) (Homo sapiens)
Obs Value: 6.02

Compound: CC(=O)N[C@@H](Cc1ccc(O)cc1)C(=O)N[C@H](C(=O)N1CC(OCc2ccccc2)C[C@H]1C(=O)NC(C=O)CC(=O)O)C(C)C (stereo partly shown)
Target System: interleukin-1β converting enzyme (ICE) (Homo sapiens)
Obs Value: 8.00

Compound: CC(=O)N[C@@H](Cc1ccc(O)cc1)C(=O)N[C@H](C(=O)N1Cc2ccccc2C[C@H]1C(=O)NC(C=O)CC(=O)O)C(C)C (stereo partly shown) [L] (Ac-YV[Tic][ξD]-aldehyde)
Target System: interleukin-1β converting enzyme (ICE) (Homo sapiens)
Obs Value: 7.85

Compound: C[C@H](NC(=O)c1ccc[nH]1)C(=O)N[C@H](C=O)CC(=O)O [Compound 36a]
Target System: interleukin-1β converting enzyme (ICE) (Homo sapiens)
Obs Value: 5.33

Compound: C[C@H](NC(=O)c1cnc(CCc2ccccc2)[nH]1)C(=O)N[C@H](C=O)CC(=O)O [Compound 33a]
Target System: interleukin-1β converting enzyme (ICE) (Homo sapiens)
Obs Value: 5.26

Please look at this compound and report its pKi: C[C@H](NC(=O)c1cnc(Cc2ccccc2)[nH]1)C(=O)N[C@H](C=O)CC(=O)O [Compound 33c]
5.07

Item C[C@H](NC(=O)c1ncc[nH]1)C(=O)N[C@H](C=O)CC(=O)O [Compound 20a] : provide pKi
5.49
